Some molecules, each annotated with its measured Release.
system: Gastrin-releasing peptide receptor (Rattus norvegicus) (UniProt P52500)
Sequence (P52500 whole entry): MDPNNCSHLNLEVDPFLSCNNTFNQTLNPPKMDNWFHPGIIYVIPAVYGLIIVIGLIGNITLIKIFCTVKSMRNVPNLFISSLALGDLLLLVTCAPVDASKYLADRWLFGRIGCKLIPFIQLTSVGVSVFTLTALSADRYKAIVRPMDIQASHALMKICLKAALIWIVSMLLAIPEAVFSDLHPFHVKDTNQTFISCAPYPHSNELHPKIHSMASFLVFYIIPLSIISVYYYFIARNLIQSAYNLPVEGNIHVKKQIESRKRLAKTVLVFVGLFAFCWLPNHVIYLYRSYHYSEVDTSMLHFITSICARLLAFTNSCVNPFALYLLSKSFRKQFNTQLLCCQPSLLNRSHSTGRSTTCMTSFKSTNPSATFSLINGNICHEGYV
procedure details: Tested for the inhibition of Bombesin-stimulated amylase release at 5 uM concentration in rat pranceatic acini
Assay type: functional
Where a SMILES comes first, the peptide text is derived from it. The star is where a group is joined. X1 = CSCC[C@H](NC[C@H](CC(C)C)N*)C(N)=O
Please answer using the number first and the unit second.

CSCC[C@H](NC[C@H](CC(C)C)NC(=O)[C@H](Cc1c[nH]cn1)NC(=O)CNC(=O)[C@@H](NC(=O)[C@H](C)NC(=O)[C@H](Cc1c[nH]c2ccccc12)NC(C)=O)C(C)C)C(N)=O (Ac-WAVGH-X1) | 4.7%

Here is another molecule to look at.
Which Release is listed for "CC(=O)NC[C@H](CC(C)C)NC(=O)[C@H](Cc1c[nH]cn1)NC(=O)CNC(=O)[C@@H](NC(=O)[C@H](C)NC(=O)[C@H](Cc1cn(C=O)c2ccccc12)NC(=O)[C@H](Cc1c[nH]cn1)NC(=O)[C@H](N)Cc1ccccc1)C(C)C" ?
3.1%

###

system: Gastrin-releasing peptide receptor (Rattus norvegicus)
procedure details: Tested for the inhibition of Bombesin-stimulated amylase release in the presence of 0.2 nM of bombesin in rat pranceatic acini
Assay type: functional
Where a SMILES comes first, the peptide text is derived from it. The star is where a group is joined. X1 = CSCC[C@H](NC[C@H](CC(C)C)N*)C(N)=O; X2 = CC(=O)NC[C@H](CC(C)C)N*
experimental endpoint: Release (%)
Express it in %; write the number only.

CSCC[C@H](NC[C@H](CC(C)C)NC(=O)[C@H](Cc1c[nH]cn1)NC(=O)CNC(=O)[C@@H](NC(=O)[C@H](C)NC(=O)[C@H](Cc1c[nH]c2ccccc12)NC(=O)[C@H](N)Cc1ccccc1)C(C)C)C(N)=O | 18.3

Which Release is listed for "CSCC[C@@H](C(N)=O)N(C=O)C[C@H](CC(C)C)NC(=O)[C@H](Cc1c[nH]cn1)NC(=O)CNC(=O)[C@@H](NC(=O)[C@H](C)NC(=O)[C@H](Cc1c[nH]c2ccccc12)NC(=O)[C@H](Cc1c[nH]cn1)NC(=O)[C@H](CC(N)=O)NC(=O)CN)C(C)C" ?
9.4

Which Release is listed for "CN[C@@H](Cc1ccccc1)C(=O)N[C@@H](Cc1c[nH]cn1)C(=O)N[C@@H](Cc1c[nH]c2ccccc12)C(=O)N[C@@H](C)C(=O)N[C@H](C(=O)NCC(=O)N[C@@H](Cc1c[nH]cn1)C(=O)N[C@@H](CC(C)C)CN(C=O)[C@@H](CCSC)C(N)=O)C(C)C" ?
9.4

Which Release is listed for "CC(=O)NC[C@H](CC(C)C)NC(=O)[C@H](Cc1c[nH]cn1)NC(=O)CNC(=O)[C@@H](NC(=O)[C@H](C)NC(=O)[C@H](Cc1c[nH]c2ccccc12)NC(=O)[C@H](CCC(N)=O)NC(=O)[C@@H](Cc1ccccc1)NC(C)=O)C(C)C" ?
16.5

Which Release is listed for CSCC[C@H](NC[C@H](CC(C)C)NC(=O)[C@H](Cc1c[nH]cn1)NC(=O)CNC(=O)[C@@H](NC(=O)[C@H](C)NC(=O)[C@H](Cc1c[nH]c2ccccc12)NC(C)=O)C(C)C)C(N)=O (Ac-WAVGH-X1) ?
17.8

Which Release is listed for "CN[C@H](Cc1ccccc1)C(=O)N[C@@H](Cc1c[nH]cn1)C(=O)N[C@@H](Cc1c[nH]c2ccccc12)C(=O)N[C@@H](C)C(=O)N[C@H](C(=O)NCC(=O)N[C@@H](Cc1c[nH]cn1)C(=O)N[C@@H](CC(C)C)CN(C=O)[C@@H](CCSC)C(N)=O)C(C)C" ?
9.4

Which Release is listed for CC(=O)NC[C@H](CC(C)C)NC(=O)[C@H](Cc1c[nH]cn1)NC(=O)CNC(=O)[C@@H](NC(=O)[C@H](C)NC(=O)[C@H](Cc1c[nH]c2ccccc12)NC(=O)[C@H](Cc1c[nH]cn1)NC(=O)[C@H](CCC(N)=O)NC(C)=O)C(C)C (Ac-QHWAVGH-X2) ?
15.9

Which Release is listed for "CSCC[C@@H](C(N)=O)N(C=O)C[C@H](CC(C)C)NC(=O)[C@H](Cc1c[nH]cn1)NC(=O)CNC(=O)[C@@H](NC(=O)[C@H](C)NC(=O)[C@H](Cc1c[nH]c2ccccc12)NC(=O)[C@H](Cc1c[nH]cn1)NC(=O)[C@@H](Cc1ccccc1)NC(=O)CN)C(C)C" ?
10.4
